- method: qHTS assay for small molecule activators of the heat shock response signaling pathway (AID 743210);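 note: HeLa cells with beta-lactamase reporter driven by heat shock elements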
- test_settings: HeLa HSE-bla reporter, beta-lactamase ratio, 5 h; series mostly up to 62.6 µM
Inconclusive results are not listed. The source made the active and inactive calls. Calls come from the whole dose curve; as a rule, active = well fitted activation curve with a large enough effect in the signal ratio in the repeat runs, with a control signal flat (not every such curve was filed as active); inconclusive = weak or mixed curves; inactive = flat fitted curve, though single readings scatter; the % refers to the signal ratio.
Give your call using only these classes: active, inactive

Input: Record lookup: outcome of this test for "NC(=O)Nc1ccc(Cl)c(Cl)c1" ?
Output: inactive

Input: Record lookup: outcome of this test for "O=C(CCC1CCN(Cc2ccccc2)CC1)c1ccc2c(c1)NCCCC2" ?
Output: inactive

Input: Record lookup: outcome of this test for "O=S(=O)(c1ccccc1)c1ccc(Cl)cc1" ?
Output: inactive

Input: Record lookup: outcome of this test for "COc1ccccc1N=Nc1c(S(=O)(=O)O)cc2cc(S(=O)(=O)O)cc(NC(C)=O)c2c1O" ?
Output: inactive

Others:
Input: Record lookup: outcome of this test for "O=[N+]([O-])c1cccc(S(=O)(=O)NCCNS(=O)(=O)c2cccc([N+](=O)[O-])c2)c1" ?
Output: inactive

Input: Record lookup: outcome of this test for CCC(C(=O)OCCOCCN(CC)CC)c1ccccc1 (stereo not drawn) ?
Output: inactive

----------
- method: A CellTox Green Cytotoxicity Assay to monitor cytotoxicity in HEK293 cells - 40 hour (AID 1224871); note: nearly all actives have a fitted effect of over 45% in size
- test_settings: CellTox Green fluorescence; series mostly up to 76.8 µM
Inconclusive results are not listed. Active and inactive are the calls of the source. Calls come from the whole dose curve; as a rule, active = well fitted activation curve with a large enough effect in the repeat runs; inconclusive = weak or mixed curves; inactive = flat fitted curve, though single readings scatter.
Give your call using only these classes: active, inactive

Input: Record lookup: outcome of this test for "CCNC(=O)N1CCN(CCCC(c2ccc(F)cc2)c2ccc(F)cc2)CC1" ?
Output: inactive

Input: Record lookup: outcome of this test for "c1cnc2c(n1)CCCC2" ?
Output: active

Input: Record lookup: outcome of this test for "CC(=O)[C@H]1CC[C@H]2[C@@H]3C=CC4=CC(=O)CC[C@@]4(C)[C@@H]3CC[C@]12C" ?
Output: inactive

----------
- study_system: Voltage-gated inwardly rectifying potassium channel KCNH2 (Homo sapiens) (UniProt Q12809)
- Sequence (Q12809 whole entry, looked up): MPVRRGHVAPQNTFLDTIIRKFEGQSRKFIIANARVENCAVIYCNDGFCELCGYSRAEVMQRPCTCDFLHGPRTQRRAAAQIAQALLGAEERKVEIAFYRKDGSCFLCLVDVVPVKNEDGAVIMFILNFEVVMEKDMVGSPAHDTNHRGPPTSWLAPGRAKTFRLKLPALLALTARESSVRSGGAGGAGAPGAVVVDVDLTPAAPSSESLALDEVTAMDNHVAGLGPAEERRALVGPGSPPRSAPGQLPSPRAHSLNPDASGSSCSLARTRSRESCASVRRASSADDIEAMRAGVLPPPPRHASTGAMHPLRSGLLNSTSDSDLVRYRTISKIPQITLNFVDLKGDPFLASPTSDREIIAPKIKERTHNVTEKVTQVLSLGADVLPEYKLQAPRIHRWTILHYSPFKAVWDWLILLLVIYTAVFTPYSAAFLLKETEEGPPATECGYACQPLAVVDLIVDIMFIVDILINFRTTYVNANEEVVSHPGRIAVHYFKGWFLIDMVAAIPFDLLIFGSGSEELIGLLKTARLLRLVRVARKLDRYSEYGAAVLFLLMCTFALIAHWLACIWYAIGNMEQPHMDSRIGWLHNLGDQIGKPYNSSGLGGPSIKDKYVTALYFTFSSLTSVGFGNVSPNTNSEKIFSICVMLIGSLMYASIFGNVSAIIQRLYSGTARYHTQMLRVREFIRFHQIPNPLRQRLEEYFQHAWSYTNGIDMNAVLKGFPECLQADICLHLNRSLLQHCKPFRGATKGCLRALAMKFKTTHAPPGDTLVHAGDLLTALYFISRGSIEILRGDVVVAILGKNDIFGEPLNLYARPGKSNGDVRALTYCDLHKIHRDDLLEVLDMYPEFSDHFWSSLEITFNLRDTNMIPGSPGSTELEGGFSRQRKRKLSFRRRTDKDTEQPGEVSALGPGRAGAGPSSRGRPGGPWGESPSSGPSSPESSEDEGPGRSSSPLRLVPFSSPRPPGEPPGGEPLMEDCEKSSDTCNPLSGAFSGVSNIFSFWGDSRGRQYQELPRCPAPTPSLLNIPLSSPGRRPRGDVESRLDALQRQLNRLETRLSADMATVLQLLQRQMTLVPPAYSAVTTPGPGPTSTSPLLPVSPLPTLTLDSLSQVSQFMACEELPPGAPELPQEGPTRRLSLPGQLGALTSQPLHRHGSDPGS
- method: Human Ether-a-go-go-Related Gene (hERG) channel small molecule antagonists: fluorescence cell-based qHTS assay (AID 1671200);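 note: hERG-expressing U2OS cells given a thallium stimulus after FluxOR II dye loading; nearly all actives have a fitted effect of over 50% in size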
- test_settings: hERG-U2OS cells, FluxOR thallium flux fluorescence; series mostly up to 76.8 µM
Records with an inconclusive call do not appear. Activity calls are given as the source filed them. Calls come from the whole dose curve; as a rule, active = well fitted inhibition curve with a large enough effect in the repeat runs; inconclusive = weak or mixed curves; inactive = flat fitted curve, though single readings scatter.
Give your call using only these classes: Yes (active), No (inactive)

Input: Record lookup: outcome of this test for "C1COCO1" ?
Output: No

Input: Record lookup: outcome of this test for "Cc1nc2ccccc2s1" ?
Output: No

Input: Record lookup: outcome of this test for "CCOC(=N)CC(=O)OCC" ?
Output: No

Input: Record lookup: outcome of this test for "C=CC(=C)CCCC(C)(C)OC(C)=O" ?
Output: No

----------
- study_system: Glucocorticoid receptor (Homo sapiens) (UniProt P04150)
- Sequence (P04150 whole entry, looked up): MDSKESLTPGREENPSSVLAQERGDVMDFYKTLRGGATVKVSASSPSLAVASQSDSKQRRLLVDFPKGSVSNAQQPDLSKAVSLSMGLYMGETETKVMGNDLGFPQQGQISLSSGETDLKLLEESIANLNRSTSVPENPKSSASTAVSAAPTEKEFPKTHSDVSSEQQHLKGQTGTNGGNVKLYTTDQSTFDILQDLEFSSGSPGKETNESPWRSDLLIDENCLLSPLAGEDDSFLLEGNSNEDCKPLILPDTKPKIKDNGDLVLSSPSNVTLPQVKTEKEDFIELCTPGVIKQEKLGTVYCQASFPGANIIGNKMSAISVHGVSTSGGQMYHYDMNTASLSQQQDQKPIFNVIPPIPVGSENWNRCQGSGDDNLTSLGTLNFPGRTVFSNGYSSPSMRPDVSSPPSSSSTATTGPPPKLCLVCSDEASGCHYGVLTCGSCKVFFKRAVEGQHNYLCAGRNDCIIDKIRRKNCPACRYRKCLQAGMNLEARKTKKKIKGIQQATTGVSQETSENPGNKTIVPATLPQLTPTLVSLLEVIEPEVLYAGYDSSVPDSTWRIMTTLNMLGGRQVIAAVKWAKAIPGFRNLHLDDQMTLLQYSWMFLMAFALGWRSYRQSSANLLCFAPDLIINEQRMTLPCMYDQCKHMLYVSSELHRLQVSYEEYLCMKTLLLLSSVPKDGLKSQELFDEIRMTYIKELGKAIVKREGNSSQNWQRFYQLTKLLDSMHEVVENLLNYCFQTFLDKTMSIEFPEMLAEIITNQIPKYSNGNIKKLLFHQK
- method: qHTS assay to identify small molecule antagonists of the glucocorticoid receptor (GR) signaling pathway (AID 720692)
- test_settings: GR-bla HeLa, beta-lactamase FRET ratio, dexamethasone-stimulated, 18 h; series mostly up to 58.5 µM
Inconclusive results are not listed. Active and inactive are the calls of the source. The call rests on the fitted dose curve; in most records, active means well fitted inhibition curve with a large enough effect in the signal ratio in the repeat runs (not every such curve was filed as active); inconclusive means weak or mixed curves, or effect the other way; inactive means no such curve, though single readings can be large or run the other way; the % refers to the signal ratio.
Give your call using only these classes: YES for active, NO for inactive

Input: Record lookup: outcome of this test for "CCCCN(CCCC)CCCOC(=O)c1ccc(N)cc1" ?
Output: NO

Input: Record lookup: outcome of this test for "O=C(NCCCN1CCOCC1)c1ccc(Cl)cc1" ?
Output: NO

Input: Record lookup: outcome of this test for "C/C=C/C=C/CCCCCCCO" ?
Output: YES

Input: Record lookup: outcome of this test for "CCCCCCOC(=O)CCCCCCCC(=O)OCCCCCC" ?
Output: NO

Hello, the source for this data is PubChem BioAssay (Tox21), in case you need it.
